Listed next: entries and their corresponding IC50.
target: recombinant human HDACs (Homo sapiens); experiment: HDAC enzymatic assay; assay type: biochemical; details: 5 nM HDAC enzyme, 5 h pre-incubation, 17 h reaction at 25° C.; isoform not given; read-out: IC50

Examples from the recorded data:
Nc1ccc(-c2ccccc2)nc1NC(=O)N1CC2CN(C3COC3)CC2C1 (centres unmarked) [Compound 199] | > 5 µM
Nc1ccc(-c2ccc(F)cc2)nc1NC(=O)N1CC2CN(Cc3ccccc3F)CC2C1 (centres unmarked) [Compound 176] | 0.5 to 5 µM
Nc1ccc(-c2cccnc2)nc1NC(=O)N1CC2(CCNCC2)C1 [Compound 220] | > 5 µM
CN1CCN(C[C@@H]2[C@H]3CN(C(=O)Nc4nc(-c5ccc(F)cc5)ccc4N)C[C@@H]23)CC1 [Compound 269] | > 5 µM
Nc1ccc(-c2ccc(F)cc2)nc1NC(=O)N1Cc2cccc(F)c2C1 [Compound 259] | 0.1 to 0.5 µM
CN1CCC(N2CC3CN(C(=O)Nc4nc(-c5ccc(F)cc5)ccc4N)CC3C2)CC1 (centres unmarked) [Compound 169] | 0.5 to 5 µM

Lookup: // IC50 lookup, key: Nc1ccc(-c2ccco2)nc1NC(=O)N1CC2CN(C3COC3)CC2C1 (centres unmarked) [Compound 182]
Found: > 5 µM

Lookup: Tell me the measured IC50 of Nc1ccc(-c2ccc(OC(F)F)cc2)nc1NC(=O)N1CCCC1 [Compound 232] , please.
Found: 0.5 to 5 µM

The values you see were collected from patent US10919902B2.
